Measured On: Kappa-type opioid receptor (Homo sapiens, UniProt P41145)
Sequence (P41145 whole entry): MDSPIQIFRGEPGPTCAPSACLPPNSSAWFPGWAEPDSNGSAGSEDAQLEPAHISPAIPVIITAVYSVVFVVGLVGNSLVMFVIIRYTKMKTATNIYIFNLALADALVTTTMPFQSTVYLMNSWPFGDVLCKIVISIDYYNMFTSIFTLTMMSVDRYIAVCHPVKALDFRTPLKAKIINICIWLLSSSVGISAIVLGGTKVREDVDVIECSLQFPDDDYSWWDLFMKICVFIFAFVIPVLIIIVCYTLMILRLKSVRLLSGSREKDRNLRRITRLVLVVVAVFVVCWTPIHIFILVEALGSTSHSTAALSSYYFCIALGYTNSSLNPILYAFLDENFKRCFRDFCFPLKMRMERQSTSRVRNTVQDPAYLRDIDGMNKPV
Assay type: functional
Quantity Name: EC50

Input line: Returns the measured EC50 for the input molecule. Input: CCC(C)(C(=O)NC1CCCCC1)N(Cc1ccco1)C(=O)c1ccccn1 (stereo unspecified)
Output line: < 500 nM

###

Measured On: Peroxisome proliferator-activated receptor gamma/Nuclear receptor coactivator 2 (Homo sapiens, UniProt P37231)
Sequence (P37231 whole entry): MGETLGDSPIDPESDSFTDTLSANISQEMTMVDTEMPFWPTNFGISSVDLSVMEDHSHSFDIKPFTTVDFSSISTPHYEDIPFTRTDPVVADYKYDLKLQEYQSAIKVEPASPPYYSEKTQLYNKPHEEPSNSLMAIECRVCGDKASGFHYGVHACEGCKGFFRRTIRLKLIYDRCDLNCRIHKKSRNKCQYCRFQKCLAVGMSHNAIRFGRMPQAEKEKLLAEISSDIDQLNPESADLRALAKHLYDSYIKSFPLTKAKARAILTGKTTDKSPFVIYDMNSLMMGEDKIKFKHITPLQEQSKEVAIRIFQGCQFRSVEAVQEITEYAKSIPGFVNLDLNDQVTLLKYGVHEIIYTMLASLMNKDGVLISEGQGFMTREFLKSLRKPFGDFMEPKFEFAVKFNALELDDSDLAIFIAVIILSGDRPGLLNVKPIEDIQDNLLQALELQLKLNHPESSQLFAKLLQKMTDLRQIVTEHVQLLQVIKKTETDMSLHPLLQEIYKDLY
Sequence (Q15596 whole entry, further chain): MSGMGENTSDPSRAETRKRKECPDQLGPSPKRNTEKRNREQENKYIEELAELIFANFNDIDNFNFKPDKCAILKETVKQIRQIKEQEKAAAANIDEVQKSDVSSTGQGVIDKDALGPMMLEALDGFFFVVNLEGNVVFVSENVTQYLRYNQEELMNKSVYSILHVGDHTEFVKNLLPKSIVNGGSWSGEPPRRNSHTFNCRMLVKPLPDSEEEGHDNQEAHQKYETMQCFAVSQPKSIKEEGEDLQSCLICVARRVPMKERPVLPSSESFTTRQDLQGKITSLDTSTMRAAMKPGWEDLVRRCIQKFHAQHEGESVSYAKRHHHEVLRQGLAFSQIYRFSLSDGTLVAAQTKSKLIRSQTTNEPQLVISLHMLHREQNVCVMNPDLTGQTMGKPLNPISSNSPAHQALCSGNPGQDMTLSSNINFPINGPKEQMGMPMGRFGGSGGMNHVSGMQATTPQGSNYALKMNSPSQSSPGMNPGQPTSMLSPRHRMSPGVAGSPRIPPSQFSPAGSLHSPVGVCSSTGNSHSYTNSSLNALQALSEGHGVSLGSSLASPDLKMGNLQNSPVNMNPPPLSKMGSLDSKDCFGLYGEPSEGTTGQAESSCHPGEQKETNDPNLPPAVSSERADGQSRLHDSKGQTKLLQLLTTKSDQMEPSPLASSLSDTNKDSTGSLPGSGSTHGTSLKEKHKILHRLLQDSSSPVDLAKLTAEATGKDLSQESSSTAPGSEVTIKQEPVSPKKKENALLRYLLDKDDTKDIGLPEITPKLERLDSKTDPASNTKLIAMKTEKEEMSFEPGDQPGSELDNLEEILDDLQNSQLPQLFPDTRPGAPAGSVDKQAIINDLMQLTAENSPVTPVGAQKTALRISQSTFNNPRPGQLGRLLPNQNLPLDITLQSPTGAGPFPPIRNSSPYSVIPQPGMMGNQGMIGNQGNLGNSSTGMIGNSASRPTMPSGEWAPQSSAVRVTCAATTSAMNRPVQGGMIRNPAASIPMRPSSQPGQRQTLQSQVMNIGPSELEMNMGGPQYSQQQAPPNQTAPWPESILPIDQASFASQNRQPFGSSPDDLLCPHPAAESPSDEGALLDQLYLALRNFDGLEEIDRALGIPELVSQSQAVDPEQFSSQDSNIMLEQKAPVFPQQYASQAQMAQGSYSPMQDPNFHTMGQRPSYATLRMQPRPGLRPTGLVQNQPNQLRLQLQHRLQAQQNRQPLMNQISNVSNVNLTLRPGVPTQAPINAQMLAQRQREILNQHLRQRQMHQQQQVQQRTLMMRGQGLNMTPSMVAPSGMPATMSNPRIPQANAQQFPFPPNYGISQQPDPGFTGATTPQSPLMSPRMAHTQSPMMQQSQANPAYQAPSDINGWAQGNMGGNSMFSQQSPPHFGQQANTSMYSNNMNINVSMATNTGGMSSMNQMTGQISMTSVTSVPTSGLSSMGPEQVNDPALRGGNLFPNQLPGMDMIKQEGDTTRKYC
Type: functional
The source made the active and inactive calls.
Assign EC50 to each entry below.

Input line: Returns the measured EC50 for the input compound. Input: COC(=O)CSc1nc2cc3c(cc2cc1C#N)OCO3
Output line: 5.17 µM (active)

Input line: Returns the measured EC50 for the input compound. Input: COc1ccc(S(=O)(=O)Nc2c(F)cccc2F)cc1
Output line: > 79.4 µM (not active)

Input line: Returns the measured EC50 for the input compound. Input: Cc1cc(NC(=O)CN2C(=O)NC3(CCC(C)CC3)C2=O)no1 (stereo not given)
Output line: > 79.4 µM (not active)

Input line: Returns the measured EC50 for the input compound. Input: Cc1nc(SCC(=O)Nc2ccc(F)cc2)c2oc3ccccc3c2n1
Output line: 9.31 µM (active)

Input line: Returns the measured EC50 for the input compound. Input: COc1ccc(CC(=O)NCc2nnc(SCC(=O)Nc3cccc(F)c3)n2C)cc1
Output line: > 79.4 µM (not active)

Origin of the recorded values: ChEMBL document CHEMBL1201862
